- study.target: Chimera 2 (Homo sapiens, UniProt P36544, M226I/T225V)
- Sequence (P36544 with tags, fused parts or gaps T225V/M226I): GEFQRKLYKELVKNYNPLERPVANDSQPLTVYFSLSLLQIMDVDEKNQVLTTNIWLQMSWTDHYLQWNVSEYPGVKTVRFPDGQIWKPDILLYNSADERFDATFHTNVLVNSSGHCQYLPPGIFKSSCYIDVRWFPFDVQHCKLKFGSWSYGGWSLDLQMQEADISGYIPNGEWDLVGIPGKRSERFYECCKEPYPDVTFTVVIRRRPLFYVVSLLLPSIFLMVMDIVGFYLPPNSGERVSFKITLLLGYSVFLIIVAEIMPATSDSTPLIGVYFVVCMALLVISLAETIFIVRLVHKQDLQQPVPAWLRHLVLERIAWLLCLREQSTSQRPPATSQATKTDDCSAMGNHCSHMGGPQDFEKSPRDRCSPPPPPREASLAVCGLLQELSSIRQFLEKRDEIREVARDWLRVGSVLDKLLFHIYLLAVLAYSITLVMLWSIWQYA
- procedure.text: [3H]A-585539 radioligand binding, HEK-293 membranes/homogenates
- Parameters: expressed in transfected cells
- measurement.context: presence of 10 μM genistein; read-out: Kd, representative saturation binding
reported.metric: Kd
Be sure to follow the number with its unit.

The recorded Kd for C[N+]1(C)C[C@@H]2C[C@H]1CN2c1ccc(-c2ccccc2)nn1.[I-] [[^3H]A585539] is 0.17 nM

----------
- study.target: Chimera 2 (Homo sapiens, UniProt P36544, M226I/T225V)
- procedure.text: Two electrode voltage clamp in Xenopus oocytes (POETs), agonist and modulator responses
- Type: cell-based
- Set-up: expressed in transfected cells; host or cells: Xenopus laevis oocytes (transient, A2)
- measurement.context: read-out: Agonist potency, two electrode voltage clamp, Xenopus oocyte: EC50 (95% C.I.)
reported.metric: EC50 (µM)
Answers are plain numbers, in µM.

EC50 reported for this compound C[N+](C)(C)CCO : 214

----------
- study.target: Chimera 1 (Homo sapiens, UniProt P36544, M226I/T225V)
- Sequence (P36544 with tags, fused parts or gaps T225V/M226I): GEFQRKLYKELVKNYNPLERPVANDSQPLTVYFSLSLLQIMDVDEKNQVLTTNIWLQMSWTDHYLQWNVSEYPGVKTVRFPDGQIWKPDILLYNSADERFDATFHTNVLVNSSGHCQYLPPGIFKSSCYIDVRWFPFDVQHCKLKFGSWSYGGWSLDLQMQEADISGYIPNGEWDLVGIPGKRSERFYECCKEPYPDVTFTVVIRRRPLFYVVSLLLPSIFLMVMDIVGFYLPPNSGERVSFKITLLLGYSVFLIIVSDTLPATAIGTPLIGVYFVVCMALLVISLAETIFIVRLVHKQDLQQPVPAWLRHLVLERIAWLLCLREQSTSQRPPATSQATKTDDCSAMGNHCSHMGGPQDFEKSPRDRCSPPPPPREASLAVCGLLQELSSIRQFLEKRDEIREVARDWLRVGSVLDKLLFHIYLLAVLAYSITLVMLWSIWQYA
- procedure.text: Membrane potential imaging (FLIPR-FMP) in HEK-293 cells
- Assay type: cell-based
- Parameters: expressed in transfected cells
- measurement.context: read-out: Agonist potency, membrane potential imaging: EC50 (95% C.I.); HEK-293 cells
For each of the compounds below, state its pEC50.
One number for each entry, as −log10 of the molar value.

In the examples that follow, each entry is paired with its recorded pEC50.
molecule | study.target | pEC50
C[N+](C)(C)CCO | Chimera 1 (Homo sapiens, UniProt P36544, M226I/T225V) | 3.55
O=C(N[C@H]1CN2CCC1CC2)c1ccc(Cl)cc1 | Chimera 1 (Homo sapiens, UniProt P36544, M226I/T225V) | 6.69

Below: the item to evaluate.
pEC50 recorded for this compound, c1ccc(-c2nnc(N3CCN4CCC3CC4)o2)cc1 , is 6.88

----------
Give measured EC50 for each item. Keep answers brief.
- study.target: wild-type α7 nicotinic acetylcholine receptor (Homo sapiens)
- Construct: expressed in transfected cells; host or cells: Xenopus laevis oocytes
- Sequence (P36544 23-502): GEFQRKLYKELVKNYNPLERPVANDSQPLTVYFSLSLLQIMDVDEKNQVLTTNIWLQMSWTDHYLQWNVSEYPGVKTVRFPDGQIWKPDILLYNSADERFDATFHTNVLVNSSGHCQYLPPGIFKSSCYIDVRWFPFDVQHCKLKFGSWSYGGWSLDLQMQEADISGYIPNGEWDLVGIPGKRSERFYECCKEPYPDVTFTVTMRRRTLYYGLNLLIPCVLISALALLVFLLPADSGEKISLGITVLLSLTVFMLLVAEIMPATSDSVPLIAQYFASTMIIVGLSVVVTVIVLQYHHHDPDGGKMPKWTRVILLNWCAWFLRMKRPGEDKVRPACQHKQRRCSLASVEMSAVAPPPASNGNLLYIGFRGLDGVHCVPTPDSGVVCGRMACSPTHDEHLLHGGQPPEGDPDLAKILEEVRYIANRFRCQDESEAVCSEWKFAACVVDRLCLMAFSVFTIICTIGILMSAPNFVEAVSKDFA
- procedure.text: Two electrode voltage clamp in Xenopus oocytes, agonist and modulator responses
- Assay type: cell-based
- measurement.context: Positive allosteric modulation potency, two electrode voltage clamp: EC50 (95% C.I.), submaximum ACh (100 μM)-evoked response

molecule | EC50
O=c1c(-c2ccc(O)cc2)coc2cc(O)cc(O)c12 [Genistein, genistein] | 10.6 µM

Now let's try a different one.
Query Oc1ccc2[nH]ccc2c1 [5-HI, 5-hydroxyindole] on wild-type α7 nicotinic acetylcholine receptor (Homo sapiens); EC50 returned: 500 to 700 µM

----------
- study.target: Chimera 1 (Homo sapiens, UniProt P36544, M226I/T225V)
- procedure.text: Two electrode voltage clamp in Xenopus oocytes (POETs), agonist and modulator responses
- Type: cell-based
- Design: expressed in transfected cells; host or cells: Xenopus laevis oocytes (transient, A1)
- measurement.context: read-out: Positive allosteric modulation potency, two electrode voltage clamp: EC50 (95% C.I.); submaximum ACh (100 μM)-evoked response
reported.metric: pEC50
One number for each entry, as −log10 of the molar value.

Sample Oc1ccc2[nH]ccc2c1 [5-HI, 5-hydroxyindole] ; pEC50 observed: 3.30

----------
- study.target: Chimera 2 (Homo sapiens, UniProt P36544, M226I/T225V)
- procedure.text: Two electrode voltage clamp in Xenopus oocytes (POETs), agonist and modulator responses
- Format: cell-based
- Design: expressed in transfected cells; host or cells: Xenopus laevis oocytes (transient, A2)
- measurement.context: read-out: Positive allosteric modulation potency, two electrode voltage clamp: EC50 (95% C.I.); submaximum ACh (10-30 μM)-evoked response
reported.metric: pEC50
One number for each entry, as −log10 of the molar value.

Known value: Chimera 2 (Homo sapiens, UniProt P36544, M226I/T225V) pEC50 of the compound Oc1ccc2[nH]ccc2c1 [5-HI, 5-hydroxyindole] equals 3.30

----------
- study.target: Chimera 2 (Homo sapiens, UniProt P36544, M226I/T225V)
- procedure.text: [3H]A-585539 radioligand binding, HEK-293 membranes/homogenates
- Set-up: expressed in transfected cells
- measurement.context: without genistein, 20 μg/well; read-out: Kd, saturation binding
reported.metric: Kd (nM)
Numbers only, in nM.

Entry C[N+]1(C)C[C@@H]2C[C@H]1CN2c1ccc(-c2ccccc2)nn1.[I-] [[^3H]A585539] ; Kd = 0.17

----------
- study.target: Chimera 2 (Homo sapiens, UniProt P36544, M226I/T225V)
- procedure.text: [3H]A-585539 radioligand binding, HEK-293 membranes/homogenates
- Set-up: expressed in transfected cells
- measurement.context: absence of genistein; read-out: Kd, representative saturation binding
reported.metric: Kd
Give the figure together with its unit, number first.

Given item C[N+]1(C)C[C@@H]2C[C@H]1CN2c1ccc(-c2ccccc2)nn1.[I-] [[^3H]A585539] , the value recorded as its Kd is 0.15 nM

----------
- study.target: Chimera 1 (Homo sapiens, UniProt P36544, M226I/T225V)
- procedure.text: Membrane potential imaging (FLIPR-FMP) in HEK-293 cells
- Assay type: cell-based
- Parameters: expressed in transfected cells
- measurement.context: read-out: Agonist concentration-response EC50; in the presence of 10 μM genistein
reported.metric: pEC50
Numbers only, as −log10 of the molar value.

Item: O=C(N[C@H]1CN2CCC1CC2)c1ccc(Cl)cc1 | System: Chimera 1 (Homo sapiens, UniProt P36544, M226I/T225V) | pEC50: 6.28

----------
- study.target: Chimera 2 (Homo sapiens, UniProt P36544, M226I/T225V)
- procedure.text: Two electrode voltage clamp in Xenopus oocytes (POETs), agonist and modulator responses
- Format: cell-based
- Set-up: expressed in transfected cells; host or cells: Xenopus laevis oocytes (transient, A2)
- measurement.context: read-out: Positive allosteric modulation potency, two electrode voltage clamp: EC50 (95% C.I.)
reported.metric: pEC50
Give bare numbers, as −log10 of the molar value.

Form field pEC50 for item O=c1c(-c2ccc(O)cc2)coc2cc(O)cc(O)c12 on Chimera 2 (Homo sapiens, UniProt P36544, M226I/T225V): 5.28

----------
- study.target: Chimera 2 (Homo sapiens, UniProt P36544, M226I/T225V)
- procedure.text: [3H]A-585539 radioligand binding, HEK-293 membranes/homogenates
- Design: expressed in transfected cells
- measurement.context: membranes of HEK-293 cells expressing Chimera 2; read-out: Radioligand Binding KD ± SEM
reported.metric: Kd (nM)
Answers are plain numbers, in nM.

response.value for C[N+]1(C)C[C@@H]2C[C@H]1CN2c1ccc(-c2ccccc2)nn1.[I-] [[^3H]A585539] (field: Kd) = 0.17

----------
- study.target: Chimera 1 (Homo sapiens, UniProt P36544, M226I/T225V)
- procedure.text: Membrane potential imaging (FLIPR-FMP) in HEK-293 cells
- Type: cell-based
- Design: expressed in transfected cells
- measurement.context: read-out: Agonist concentration-response EC50; in the presence of 1 mM 5-HI
reported.metric: pEC50
Numbers only, as −log10 of the molar value.

Documented pEC50 of O=C(N[C@H]1CN2CCC1CC2)c1ccc(Cl)cc1 : 6.84

----------
- study.target: Chimera 1 (Homo sapiens, UniProt P36544, M226I/T225V)
- procedure.text: Two electrode voltage clamp in Xenopus oocytes (POETs), agonist and modulator responses
- Assay type: cell-based
- Set-up: expressed in transfected cells; host or cells: Xenopus laevis oocytes (transient, A1)
- measurement.context: read-out: Agonist potency, two electrode voltage clamp, Xenopus oocyte: EC50 (95% C.I.); peak current amplitude
reported.metric: pEC50
Numbers only, as −log10 of the molar value.

// field: pEC50; key: C[N+](C)(C)CCO [Choline, choline] ; value = 2.82

----------
- study.target: Chimera 2 (Homo sapiens, UniProt P36544, M226I/T225V)
- procedure.text: [3H]A-585539 radioligand binding, HEK-293 membranes/homogenates
- Design: expressed in transfected cells
- measurement.context: 10 μM genistein, 20 μg/well; read-out: Kd, saturation binding
reported.metric: pKd
One number for each entry, as −log10 of the molar value.

Entry C[N+]1(C)C[C@@H]2C[C@H]1CN2c1ccc(-c2ccccc2)nn1.[I-] [[^3H]A585539] — recorded pKd = 9.74

----------
- study.target: Chimera 2 (Homo sapiens, UniProt P36544, M226I/T225V)
- procedure.text: Membrane potential imaging (FLIPR-FMP) in HEK-293 cells
- Format: cell-based
- Set-up: expressed in transfected cells
- measurement.context: read-out: Agonist potency, membrane potential imaging: EC50 (95% C.I.); HEK-293 cells
Record form. Attribute: EC50. Fill in for each entry.
One number for each entry, in nM.

compound | EC50 / nM
c1ccc(-c2nnc(N3CCN4CCC3CC4)o2)cc1 [NS6784] | 72

Quick request: EC50 for each listed item, please.
1. C[N+](C)(C)CCO [Choline, choline]
2. O=C(N[C@H]1CN2CCC1CC2)c1ccc(Cl)cc1 [PNU-282987]

Return:
[37800, 53]
